# measuredOn: FKBP12 (Homo sapiens)
Give measured Ki for each item. Keep answers brief.
Kindly provide the numeric value in nM only, without the unit symbol.

input: What Ki value was documented for this compound, COc1ccc(OCCN2CCC3CCCC(C2=O)N3S(=O)(=O)c2cc(Cl)c(O)c(Cl)c2)cc1OC (centres unmarked) ?
output: 400

input: Moving on to COc1ccc(OCCN2CCC3CCCC(C2=O)N3S(=O)(=O)c2ccc3[nH]c(=O)sc3c2)cc1OC (centres unmarked)
output: 1

input: Could you do the same for CCC(C)(C)C(=O)C(=O)N1C2CCCC1C(=O)N(CCOc1ccc(OC)c(OC)c1)CC2 (centres unmarked) [Compound 5f, reference compound] , please?
output: 1500

input: Would you kindly repeat that for COc1ccc(OCCOC(=O)C2CCCCN2S(=O)(=O)c2cc(Cl)cc(Cl)c2)cc1OC (centres unmarked) [Compound 3b, reference compound] ?
output: 400

input: Now give it for COc1ccc(CCN2CCC3CCCC(C2=O)N3C(=O)C(=O)c2cc(OC)c(OC)c(OC)c2)cc1OC (centres unmarked) [Compound 5h, reference compound] too.
output: 1500

====

# measuredOn: UniProt:Q13451
# Sequence (Q13451 42-130 limits assumed): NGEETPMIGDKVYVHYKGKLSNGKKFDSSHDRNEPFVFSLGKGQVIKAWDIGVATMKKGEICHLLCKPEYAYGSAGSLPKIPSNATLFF
parameter: Ki (µM)
Quick reminder: number only, in µM, skip the unit.

input: Which measured Ki belongs to COc1ccc(OCCN2CC3CCCC(C2=O)N3S(=O)(=O)c2ccc3ncsc3c2)cc1OC (stereo not drawn) , tested on UniProt:Q13451?
output: 64.8

input: Okay, and C=C[C@H]1CN(CCOc2ccc(OC)c(OC)c2)C(=O)[C@@H]2CCC[C@H]1N2S(=O)(=O)c1cc(Cl)cc(Cl)c1 ?
output: 2.1

input: Then this compound: O=C1NCCC2CCCC1N2S(=O)(=O)c1ccc2[nH]c(=O)sc2c1 (stereo not drawn)
output: 9.8

input: Now the same for COc1ccc(OCCN2CC3CCCC(C2=O)N3S(=O)(=O)c2cc(Cl)cc(Cl)c2)cc1OC (stereo not drawn)
output: 8.8

input: One more compound: O=C1NCC2CCCC1N2S(=O)(=O)c1ccc2[nH]c(=O)sc2c1 (stereo not drawn)
output: 27

input: Moving on to the next compound: COc1ccc(OCCN2CCC3CCCC(C2=O)N3S(=O)(=O)c2cc(Cl)c(O)c(Cl)c2)cc1OC (stereo not drawn)
output: 1

input: How about COc1ccc(OCCN2CCC3CCCC(C2=O)N3S(=O)(=O)c2ccc3[nH]c(=O)sc3c2)cc1OC (stereo not drawn) ?
output: 0.3

input: Lookup COc1ccc(OCCN2CCC3CCCC(C2=O)N3S(=O)(=O)c2cc(Cl)cc(Cl)c2)cc1OC (stereo not drawn)
output: 1.2

input: // next record COc1ccc(OCCN2CC3CCCC(C2=O)N3C(=O)C(=O)c2cc(OC)c(OC)c(OC)c2)cc1OC (stereo not drawn) [Compound 4a, reference compound]
output: 51.1

input: And what about the compound C=CC[C@@H]1/C=C(\C)C[C@H](C)C[C@H](OC)[C@H]2O[C@@](O)(C(=O)C(=O)N3CCCC[C@H]3C(=O)O[C@H](/C(C)=C/[C@@H]3CC[C@@H](O)[C@H](OC)C3)[C@H](C)[C@@H](O)CC1=O)[C@H](C)C[C@@H]2OC [FK 506, FK506, reference compound] ?
output: 0.028

input: Item: COc1ccc(OCCN2CCC3CCCC(C2=O)N3S(=O)(=O)c2ccc3ncsc3c2)cc1OC (stereo not drawn)
output: 2.1

input: // same read-out, input: COc1ccc(OCCN2CC3CCCC(C2=O)N3S(=O)(=O)c2ccc3[nH]c(=O)sc3c2)cc1OC (stereo not drawn)
output: 13.9

====

Record form. Attribute: FKBP51 ligand efficiency (LE). Fill in for each entry.
# measuredOn: FKBP51 (Homo sapiens, UniProt Q13451)
# Construct: 400 nM FKBP51FK1, 1600 nM FKBP52FK1
# testDetails: Competitive fluorescence polarization assay, binding to FKBP51
# testContext: LE=(ΔG)/N, ΔG=−RTlnKi, RT=0.6, N non-hydrogen atoms
# print the numeric value only

input: Requested field: FKBP51 ligand efficiency (LE). Item: COc1ccc(OCCN2CCC3CCCC(C2=O)N3S(=O)(=O)c2ccc3ncsc3c2)cc1OC (stereo not shown) [Compound 5c]
output: 0.22

input: Next record, please: O=C1NCCC2CCCC1N2S(=O)(=O)c1ccc2[nH]c(=O)sc2c1 (stereo not shown) [Compound 5e]
output: 0.29

input: Repeat for the following compound: COc1ccc(OCCN2CC3CCCC(C2=O)N3S(=O)(=O)c2ccc3ncsc3c2)cc1OC (stereo not shown) [Compound 4c]
output: 0.17

input: Request: COc1ccc(OCCN2CCC3CCCC(C2=O)N3S(=O)(=O)c2cc(Cl)c(O)c(Cl)c2)cc1OC (stereo not shown) [Compound 5i]
output: 0.23

input: Would you mind doing COc1ccc(OCCN2CCC3CCCC(C2=O)N3S(=O)(=O)c2cc(Cl)cc(Cl)c2)cc1OC (stereo not shown) [Compound 5b] as well?
output: 0.23

input: Now try O=C1NCC2CCCC1N2S(=O)(=O)c1ccc2[nH]c(=O)sc2c1 (stereo not shown) [Compound 4e] .
output: 0.27

input: Moving on to the next compound: COc1ccc(OCCN2CC3CCCC(C2=O)N3S(=O)(=O)c2ccc3[nH]c(=O)sc3c2)cc1OC (stereo not shown) [Compound 4d]
output: 0.19

input: Next compound up: COc1ccc(OCCN2CC3CCCC(C2=O)N3C(=O)C(=O)c2cc(OC)c(OC)c(OC)c2)cc1OC (stereo not shown) [Compound 4a, reference compound]
output: 0.15

input: # repeat for COc1ccc(OCCN2CCC3CCCC(C2=O)N3S(=O)(=O)c2ccc3[nH]c(=O)sc3c2)cc1OC (stereo not shown) [Compound 5d]
output: 0.24

input: Also COc1ccc(OCCN2CC3CCCC(C2=O)N3S(=O)(=O)c2cc(Cl)cc(Cl)c2)cc1OC (stereo not shown) [Compound 4b] , if possible.
output: 0.21

====

# measuredOn: FKBP12 (Homo sapiens, UniProt P62942)
# Sequence (P62942 whole entry): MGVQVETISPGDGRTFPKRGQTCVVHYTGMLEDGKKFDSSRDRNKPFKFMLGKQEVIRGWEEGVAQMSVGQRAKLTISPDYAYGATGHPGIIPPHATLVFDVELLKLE
# testDetails: Competitive fluorescence polarization assay, binding to FKBP12
# testContext: LE=(ΔG)/N, ΔG=−RTlnKi, RT=0.6, N non-hydrogen atoms
Give FKBP12 ligand efficiency (LE) for every item shown.
Format: numeric value only, no unit, no commentary.

input: Given COc1ccc(CCN2CCC3CCCC(C2=O)N3C(=O)C(=O)c2cc(OC)c(OC)c(OC)c2)cc1OC (stereo not shown) [Compound 5h, reference compound] , state its recorded FKBP12 ligand efficiency (LE).
output: 0.21

input: What about this compound? COc1ccc(OCCOC(=O)C2CCCCN2S(=O)(=O)c2ccc3ncsc3c2)cc1OC (stereo not shown) [Compound 3c, reference compound]
output: 0.28

input: Would you kindly repeat that for COc1ccc(OCCN2CC3CCCC(C2=O)N3S(=O)(=O)c2cc(Cl)cc(Cl)c2)cc1OC (stereo not shown) ?
output: 0.28

input: Would you kindly repeat that for O=C1NCC2CCCC1N2S(=O)(=O)c1ccc2[nH]c(=O)sc2c1 (stereo not shown) ?
output: 0.42

input: Same question for O=C1NCCC2CCCC1N2S(=O)(=O)c1ccc2[nH]c(=O)sc2c1 (stereo not shown) please.
output: 0.41

input: Next record, please: COc1ccc(OCCOC(=O)C2CCCCN2S(=O)(=O)c2cc(Cl)cc(Cl)c2)cc1OC (stereo not shown) [Compound 3b, reference compound]
output: 0.27

input: Again, but for CCC(C)(C)C(=O)C(=O)N1C2CCCC1C(=O)N(CCOc1ccc(OC)c(OC)c1)CC2 (stereo not shown) [Compound 5f, reference compound]
output: 0.24

input: Now the compound COc1ccc(OCCOC(=O)C2CCCCN2C(=O)C(=O)c2cc(OC)c(OC)c(OC)c2)cc1OC (stereo not shown) [Compound 3a, reference compound]
output: 0.22

input: What do you get for COc1ccc(OCCN2CC3CCCC(C2=O)N3S(=O)(=O)c2ccc3ncsc3c2)cc1OC (stereo not shown) ?
output: 0.24

input: Moving on to the next compound: COc1ccc(OCCN2CCC3CCCC(C2=O)N3S(=O)(=O)c2cc(Cl)cc(Cl)c2)cc1OC (stereo not shown)
output: 0.32

input: Note, next up: COc1ccc(OCCN2CCC3CCCC(C2=O)N3S(=O)(=O)c2cc(Cl)c(O)c(Cl)c2)cc1OC (stereo not shown)
output: 0.24

input: Moving on to the next compound: CCN1CC2CCCC(C1=O)N2C(=O)C(=O)c1cc(OC)c(OC)c(OC)c1 (stereo not shown) [Compound 4g, reference compound]
output: 0.26

input: Follow-up item: COc1ccc(OCCN2CCC3CCCC(C2=O)N3S(=O)(=O)c2ccc3ncsc3c2)cc1OC (stereo not shown)
output: 0.29
